Target: KRas^G12C (Homo sapiens, UniProt P01116, G12C)
Construct: corresponding to amino acids 1-169, produced at Accelegan Inc; biotin (biotinylated); purchased Accelegan Inc
Sequence (P01116 1-169 isoform P01116-2 G12C): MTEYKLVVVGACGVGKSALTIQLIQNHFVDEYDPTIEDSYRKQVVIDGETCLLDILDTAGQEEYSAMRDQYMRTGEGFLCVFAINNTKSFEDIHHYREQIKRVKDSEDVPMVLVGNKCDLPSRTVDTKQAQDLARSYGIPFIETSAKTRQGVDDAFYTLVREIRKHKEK
Test: KRas Binding Assay (TR-FRET displacement), KRas G12C
Settings: TR-FRET tracer displacement
PARAMETER: IC50 (nM)

COMPOUND	TARGET_OF_ASSAY	PARAMETER	EXPERIMENTAL_VALUE
C[C@H](Oc1nc(-c2noc(C3(C)CCCc4sc(N)c(C#N)c43)n2)cc(N2C[C@@H]3C[C@H](C2)[C@H](O)C3)n1)[C@@H]1CCCN1C (stereo partly drawn)	KRas^G12C (Homo sapiens, UniProt P01116, G12C)	IC50	313

1. C[C@H](Oc1nc(-c2cc(C3(C)CCCc4sc(N)c(C#N)c43)sn2)cc(N2CCCC3(C2)NC(=O)NC3=O)n1)[C@@H]1CCCN1C (stereo partly drawn)
2. C[C@H](Oc1nc(-c2noc(C3(C)CCCc4sc(N)c(C#N)c43)n2)cc(N2CCC[C@@](C)(O)C2)n1)[C@@H]1CCCN1C (stereo partly drawn)
Asked: Pick one: 1 or 2 . Which one has the lower reported IC50? Identify your pick by its label.
Given back: 2

====

Molecular target: KRas^G12V (Homo sapiens, UniProt P01116, G12V)
Construct: corresponding to amino acids 1-169, produced at Accelegan Inc; biotin (biotinylated); purchased Accelegan Inc
Sequence (P01116 1-169 isoform P01116-2 G12V): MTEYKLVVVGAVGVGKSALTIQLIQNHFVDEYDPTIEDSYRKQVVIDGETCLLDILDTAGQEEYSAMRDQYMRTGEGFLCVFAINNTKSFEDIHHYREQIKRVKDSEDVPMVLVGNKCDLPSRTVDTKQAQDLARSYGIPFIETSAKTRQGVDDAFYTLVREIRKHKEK
Experiment: KRas Binding Assay (TR-FRET displacement), KRas G12V
Details: TR-FRET tracer displacement
PARAMETER: IC50 (nM)

a. C[C@H](Oc1nc(-c2cc(C3(C)CCCc4sc(N)c(C#N)c43)sn2)cc(N2CCCn3nc(C(=O)N(C)C)cc3C2)n1)[C@@H]1CCCN1C (stereo partly shown)
b. C[C@H](Oc1nc(-c2noc(C3(C)CCCc4sc(N)c(C#N)c43)n2)cc(N2CCCn3nc(C(=O)N(C)C)cc3C2)n1)[C@@H]1CCCN1C (stereo partly shown)
c. C[C@H](Oc1nc(-c2noc(C3(C)CCCc4sc(N)c(C#N)c43)n2)cc(N2C[C@@H]3C[C@H](C2)[C@H](O)C3)n1)[C@@H]1CCCN1C (stereo partly shown)
Asked: Falling order of IC50, please. Put the labels in the requested order and list them out.
Given back: b, a, c
(b: 746 nM, a: 163 nM, c: 62 nM)

1. C[C@H](Oc1nc(-c2cc(C3(C)CCCc4sc(N)c(C#N)c43)sn2)cc(N2CCCC3(CNS(=O)(=O)N3)C2)n1)[C@@H]1CCCN1C (stereo partly shown)
2. C[C@H](Oc1nc(-c2cc(C3(C)CCCc4sc(N)c(C#N)c43)sn2)cc(N2C[C@@H]3C[C@H](C2)[C@H](O)C3)n1)[C@@H]1CCCN1C (stereo partly shown)
Asked: Between the two listed entries 1 and 2 , which has its IC50 at the higher number? Identify your pick by its label.
Given back: 2

I. C[C@H](Oc1nc(-c2noc(C3(C)CCCc4sc(N)c(C#N)c43)n2)cc(N2CCCC3(CNS(=O)(=O)N3)C2)n1)[C@@H]1CCCN1C (stereo partly shown)
II. C[C@H](Oc1nc(-c2noc(C3(C)CCCc4sc(N)c(C#N)c43)n2)cc(N2CCC[C@@](C)(O)C2)n1)[C@@H]1CCCN1C (stereo partly shown)
Asked: Pick one: I or II . Which one has the lower reported IC50? Identify your pick by its label.
Given back: I
(I: 5 nM, II: 43 nM)
